This section presents compounds with their documented inhibition values.
Target: UniProtKB P56817
Sequence (P56817 whole entry): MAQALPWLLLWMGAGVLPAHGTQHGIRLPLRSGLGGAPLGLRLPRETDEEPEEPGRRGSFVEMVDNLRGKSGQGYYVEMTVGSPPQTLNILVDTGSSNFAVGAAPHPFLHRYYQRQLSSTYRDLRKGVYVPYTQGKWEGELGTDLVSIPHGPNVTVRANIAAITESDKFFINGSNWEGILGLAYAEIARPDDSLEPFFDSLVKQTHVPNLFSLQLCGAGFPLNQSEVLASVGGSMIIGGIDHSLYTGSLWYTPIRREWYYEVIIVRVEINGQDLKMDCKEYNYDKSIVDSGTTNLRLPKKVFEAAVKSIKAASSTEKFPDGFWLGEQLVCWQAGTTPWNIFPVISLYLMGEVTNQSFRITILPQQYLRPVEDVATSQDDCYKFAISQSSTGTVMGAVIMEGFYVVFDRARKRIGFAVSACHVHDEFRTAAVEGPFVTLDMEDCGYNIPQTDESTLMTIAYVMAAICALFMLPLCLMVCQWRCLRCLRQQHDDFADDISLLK
Assay: Inhibition of BACE1 expressed in HEK293 cells at 100 uM
Format: cell-based

Worked examples follow.
line-notation: CC(C)C[C@H](NC(=O)[C@@H](NC(=O)[C@@H](N)CNC(=O)c1nc(O)nc(O)c1I)C(C)C)C(=O)N[C@@H](Cc1ccccc1)[C@@H](O)C(=O)Nc1cccc(C(=O)O)c1
inhibition: 73%
--
line-notation: CC(C)[C@H](NC(=O)[C@@H](N)CNC(=O)c1nn[nH]n1)C(=O)N[C@@H](CC1CCCCC1)C(=O)N[C@@H](Cc1ccccc1)[C@@H](O)C(=O)Nc1cccc(-c2nn[nH]n2)c1
inhibition: 59%
--
line-notation: CC(C)[C@H](NC(=O)[C@@H](N)CNC(=O)c1cc(O)ccc1O)C(=O)N[C@@H](CC1CCCCC1)C(=O)N[C@@H](Cc1ccccc1)[C@@H](O)C(=O)Nc1cccc(-c2nn[nH]n2)c1
inhibition: 69%

Exercise: Any idea what its inhibition is? The compound is `CC(C)C[C@H](NC(=O)[C@@H](NC(=O)[C@@H](N)CNC(=O)c1cc(O)ccc1O)C(C)C)C(=O)N[C@@H](Cc1ccccc1)[C@@H](O)C(=O)Nc1cccc(-c2nn[nH]n2)c1`
Solution: 65%
